Values were extracted from ChEMBL document CHEMBL4145551.

MEASUREMENT_NOTES: Dark toxicity in human HeLa cells assessed as reduction in cell viability up to 10 uM measured after 24 hrs by MTT assay
Format: cell-based

CPD_SMILES | Activity
c1csc(-c2nc3ccccc3c3cc4ccccn4c23)c1 | Non-Toxic
Cc1cccn2c1cc1c3ccccc3nc(-c3cccs3)c12 | Non-Toxic
Clc1ccc(-c2nc3ccccc3c3cc4ccccn4c23)s1 | Non-Toxic
Brc1ccc2cc3c4ccccc4nc(-c4ccco4)c3n2c1 | Toxic
Cc1cccn2c1cc1c3ccccc3nc(-c3ccco3)c12 | Non-Toxic
Cc1cccn2c1cc1c3ccccc3nc(-c3ccc(Cl)o3)c12 | Non-Toxic
